procedure.details: Quantitative High-Throughput Screen for Regulators of Epigenetic Control; also: nearly all actives have a fitted effect of over 60% in size
experimental.context: murine LDR cells, GFP reporter derepression, 30 h; series mostly up to 53.9 µM
Screen size: about 280,000 compounds; about 540 (0.19%) were called active. About 2% were inconclusive and are not listed. Calls follow the shape of the dose curve; as a rule, active = well fitted activation curve with a large enough effect; inconclusive = small, poorly fitted or top-dose-only effect; inactive = flat fitted curve, though single readings scatter. The entries come from a sample that favours actives as a whole.
Hello, when you answer, please use one of the following outcomes: YES (active), NO (inactive)

compound	category
CCCCCn1c(=O)[nH]c2cc(C(=O)Nc3ccc(F)cc3)ccc2c1=O	NO
COc1ccc(Nc2ncc3c(n2)CCN(C(=O)OC(C)(C)C)C3)cc1	NO
CCN1/C(=C/c2ccc3ccc(C)cc3[n+]2CC)Sc2ccccc21	YES
CC1=C(C(=O)N2CCN(c3cccc(C(F)(F)F)c3)CC2)C2(CCCCC2)OC1=O	NO
Cc1ccc(Cl)cc1N(C)C(=O)C1CCCN(c2ncnc3onc(-c4ccc(F)cc4)c23)C1 (centres undefined)	NO
CC1CCC(N2CC(=O)N(CCC3=CCCCC3)C(c3ccc(F)cc3)C2=O)CC1 (centres undefined)	NO
Cc1cc(Cl)ccc1NC(=O)Cc1ccc(NC(=O)N2CCCCc3ccccc32)cc1	NO
COc1ccccc1-c1nnc(C2CCN(C(=O)c3ccc(Cl)cc3)CC2)o1	NO
Cc1ccc(-c2cc(C(=O)N/N=C/C=C/c3ccco3)c3ccccc3n2)cc1C	NO
CN(C)S(=O)(=O)c1cccc(NC(=S)N/N=C/C(=O)c2ccccc2)c1	NO

Ask: Please indicate how the test categorized "CC(=O)Nc1ccc(/C=N/NC(=O)c2cccs2)cc1" .
Result: NO

###

procedure.details: Quantitative High-Throughput Screen for Regulators of Epigenetic Control; also: nearly all actives have a fitted effect of over 60% in size
experimental.context: murine LDR cells, GFP reporter derepression, 30 h; series mostly up to 53.9 µM
Method: NIH Molecular Libraries Screening Centers Network [MLPCN] NIH Chemical Genomics Center [NCGC] […] NCGC Assay Protocol Summary: Three hundred LDR cells in 5 uL per well were dispensed into black, clear-bottom 1536-well plates. […] Fluorescent protein-based cellular assays analyzed by laser-scanning microplate cytometry in 1536-well plate format. […] A quantitative high-throughput screen identifies potential epigenetic modulators of gene expression. […]
Screen size: about 280,000 compounds; about 540 (0.19%) were called active. Roughly 2% stayed inconclusive and do not appear here. The sample as a whole holds a higher share of actives than the screen did.
readout.label: outcome

Here are 10 molecules together with their reported answers.
molecule	outcome
O=C(/C=C/c1ccccc1)Nc1cc(-c2nc3cc(Cl)ccc3o2)ccc1Cl	inactive
COc1cc(OC)c(OC)cc1/C=C/c1nc2cc3ccccc3cc2c(=O)n1-c1ccc(F)c(Cl)c1	inactive
Cc1ccc(S(=O)(=O)c2nc(-c3ccco3)oc2SCC(=O)Nc2ccc(F)cc2)cc1	inactive
CCOC(=O)c1ccc(NC(=O)CC2C(=O)N(c3ccccc3)C(=O)N2Cc2cccs2)cc1 (stereo not drawn)	inactive
COc1cccc(NC(=O)N(Cc2cn(C)c3ccccc23)C2CCCCCC2)c1	inactive
Cc1nc2sc(C(=O)c3ccccc3)c(N)c2c2c1CCCC2	inactive
O=C1CCCc2cc(S(=O)(=O)N3CCCC(C(=O)NCc4ccccc4)C3)ccc2N1 (stereo not drawn)	inactive
CCOc1ccc(NC(=O)c2cc3c(=O)n(Cc4cccs4)ccc3nc2C)cc1	inactive
CCCCNc1ccc(-c2nc(-c3ccncc3)no2)cc1[N+](=O)[O-]	inactive
COc1ccc(CNc2nc(-c3ccc(Cl)cc3)nn2S(=O)(=O)c2ccc(C)cc2)cc1	inactive

Ask: Give its outcome value. Item: COc1cccc(N=C2SC(C(=O)Nc3cccc(Cl)c3)CC(=O)N2C)c1 (stereo not drawn)
Result: inactive

Ask: Please give the measured outcome for this molecule: "Cc1c(Cl)cccc1NC(=O)Cn1cc(C(=O)c2cccs2)c2ccccc21"
Result: inactive

Ask: outcome for "Cc1oc(-c2ccccc2F)nc1CN1CCC(C(=O)NCCc2ccc(Cl)cc2)CC1" ?
Result: inactive

Just for reference, PubChem BioAssay AID1865 is where these values come from.
